Tested on: ECHORC Watergrass (Calif.)
ASSAY_NAME: Postemergence weed control, flooded paddy (Table IV)
Format: in vivo, Echinochloa oryzoides
Design: scale not given here
CONDITION_NOTES: 0.1250 kg/ha
Consider the following compounds; for each one, report its herbicidal effect rating.

Memo: COc1c(-c2nsc3ccc(-n4c(=O)cc(C(F)(F)F)n(C)c4=O)cc23)ccc(C)c1C , reported herbicidal effect rating: 9.0

Memo: CCc1ccc(-c2nsc3ccc(-n4c(=O)cc(C(F)(F)F)n(C)c4=O)cc23)cc1 , reported herbicidal effect rating: 6.0

Memo: Cn1c(C(F)(F)F)cc(=O)n(-c2ccc3snc(C(=O)C(C)(C)C)c3c2)c1=O , reported herbicidal effect rating: 9.0

Memo: COc1ccc(C)cc1-c1nsc2ccc(-n3c(=O)cc(C(F)(F)F)n(C)c3=O)cc12 , reported herbicidal effect rating: 6.5

---

Test system: Morningglory, Ivyleaf, Ipomoea hederacea
ASSAY_NAME: Postemergence herbicidal evaluation, IPOHE
Format: in vivo, (L.) Jacq.
CONDITION_NOTES: 0.0630 kg/ha
MEASURED_QUANTITY: herbicide rating (0-9)
Just the number, please, no unit after it.

Memo: C=CCOC(=O)COc1ccc(C)cc1-c1nsc2ccc(-n3c(=O)cc(C(F)(F)F)n(C)c3=O)cc12 [Compound 69] , reported herbicide rating (0-9): 9.0

Memo: CC#CCOC(=O)COc1ccc(C)cc1-c1nsc2ccc(-n3c(=O)cc(C(F)(F)F)n(C)c3=O)cc12 [Compound 75] , reported herbicide rating (0-9): 9.0

Memo: Cc1ccc(OCC(=O)OCC#Cc2ccccc2)c(-c2nsc3ccc(-n4c(=O)cc(C(F)(F)F)n(C)c4=O)cc23)c1 [Compound 73] , reported herbicide rating (0-9): 9.0

Memo: Cc1ccc(OC(C)C(=O)OCCCl)c(-c2nsc3ccc(-n4c(=O)cc(C(F)(F)F)n(C)c4=O)cc23)c1 (stereo not drawn) [Compound 81] , reported herbicide rating (0-9): 9.0

Memo: Cc1ccc(OCC(=O)OC(C)C(C)(C)C)c(-c2nsc3ccc(-n4c(=O)cc(C(F)(F)F)n(C)c4=O)cc23)c1 (stereo not drawn) [Compound 85] , reported herbicide rating (0-9): 9.0

Memo: Cn1c(C(F)(F)F)cc(=O)n(-c2ccc3snc(Br)c3c2)c1=O [Compound 36] , reported herbicide rating (0-9): 1.0

Memo: Cc1nsc2ccc(-n3c(=O)cc(C(F)(F)F)n(C)c3=O)cc12 [Compound 6] , reported herbicide rating (0-9): 5.0

Memo: Cc1ccc(OCC(=O)OCCCl)c(-c2nsc3ccc(-n4c(=O)cc(C(F)(F)F)n(C)c4=O)cc23)c1 [Compound 71] , reported herbicide rating (0-9): 9.0

Memo: COC(=O)COc1c(C)cc(C)cc1-c1nsc2ccc(-n3c(=O)cc(C(F)(F)F)n(C)c3=O)cc12 [Compound 26] , reported herbicide rating (0-9): 9.0

Memo: Cn1c(C(F)(F)F)cc(=O)n(-c2ccc3snc(Cl)c3c2)c1=O [Compound 37] , reported herbicide rating (0-9): 1.0

Memo: Cn1c(C(F)(F)F)cc(=O)n(-c2ccc3onc(-c4ccccc4)c3c2)c1=O [Compound 25] , reported herbicide rating (0-9): 8.0

Memo: C#CCOC(=O)C(C)Oc1ccc(C)cc1-c1nsc2ccc(-n3c(=O)cc(C(F)(F)F)n(C)c3=O)cc12 (stereo not drawn) [Compound 77] , reported herbicide rating (0-9): 9.0

Memo: Cc1ccc(OCC(=O)OCCN(C)C)c(-c2nsc3ccc(-n4c(=O)cc(C(F)(F)F)n(C)c4=O)cc23)c1 [Compound 70] , reported herbicide rating (0-9): 9.0

Memo: COc1cc(C)c(C)c(C)c1-c1nsc2ccc(-n3c(=O)cc(C(F)(F)F)n(C)c3=O)cc12 [Compound 34] , reported herbicide rating (0-9): 0.0

Memo: COc1c(C)cc(C)cc1-c1nsc2ccc(-n3c(=O)cc(C(F)(F)F)n(C)c3=O)cc12 [Compound 18] , reported herbicide rating (0-9): 9.0

---

Tested on: CYPIR Rice Flatsedge
ASSAY_NAME: Postemergence weed control, flooded paddy (Table IV)
Format: in vivo, Cyperus iria
Parameters: scale not given here
CONDITION_NOTES: 0.1250 kg/ha
MEASURED_QUANTITY: herbicidal effect rating
Just the number, please, no unit after it.

Memo: COc1cc(C)c(I)cc1-c1nsc2ccc(-n3c(=O)cc(C(F)(F)F)n(C)c3=O)cc12 [Compound 429] , reported herbicidal effect rating: 7.0

Memo: COc1cc(C)ccc1-c1nsc2ccc(-n3c(=O)cc(C(F)(F)F)n(C)c3=O)cc12 [Compound 7] , reported herbicidal effect rating: 9.0

Memo: C#CCOC(=O)C(C)(C)Oc1ccc(C)cc1-c1nsc2ccc(-n3c(=O)cc(C(F)(F)F)n(C)c3=O)cc12 [Compound 528] , reported herbicidal effect rating: 6.0

Memo: CCC(C#N)(CC)c1nsc2ccc(-n3c(=O)cc(C(F)(F)F)n(C)c3=O)cc12 [Compound 445] , reported herbicidal effect rating: 9.0

Memo: COC(=O)COc1cc(C)c(C)cc1-c1nsc2ccc(-n3c(=O)cc(C(F)(F)F)n(C)c3=O)cc12 [Compound 12] , reported herbicidal effect rating: 9.0

Memo: CC(C)Oc1cccc(-c2nsc3ccc(-n4c(=O)cc(C(F)(F)F)n(C)c4=O)cc23)c1 [Compound 328] , reported herbicidal effect rating: 9.0

Memo: Cc1nsc2ccc(-n3c(=O)cc(C(F)(F)F)n(C)c3=O)cc12 [Compound 6] , reported herbicidal effect rating: 9.0

Memo: CCOC(=O)COc1ccc(C)cc1-c1nsc2ccc(-n3c(=O)cc(C(F)(F)F)n(C)c3=O)cc12 [Compound 49] , reported herbicidal effect rating: 4.0

---

Test system: ZEAMX
ASSAY_NAME: Preemergence herbicidal evaluation
Assay type: in vivo
Parameters: scale not given here
CONDITION_NOTES: 0.1250 kg/ha
Procedure: The preemergence and postemergence herbicidal properties of certain compounds of the present invention are compared with certain compounds disclosed in U.S. Pat. Nos. 5,484,763 and 5,523,278. The evaluations are performed as described in Examples 185 and 186. Data in Tables V and VI are reported by the compound number given in Example 185 for the compounds of this invention or by comparative compound letter for the compounds disclosed in U.S. Pat. Nos. 5,484,763 and 5,523,278.
MEASURED_QUANTITY: herbicidal effect rating
Just the number, please, no unit after it.

Memo: O=C1C2=C(CCCC2)C(=O)N1c1ccc2snc(-c3ccccc3)c2c1 , reported herbicidal effect rating: 0.0

Memo: CN(C)C(=O)c1nsc2ccc(-n3c(=O)cc(C(F)(F)F)n(C)c3=O)cc12 , reported herbicidal effect rating: 7.0

Memo: Cc1nsc2ccc(N3C(=O)C4=C(CCCC4)C3=O)cc12 , reported herbicidal effect rating: 0.0

Memo: Cn1c(C(F)(F)F)cc(=O)n(-c2ccc3snc(-c4ccccc4)c3c2)c1=O , reported herbicidal effect rating: 7.0

Memo: Cc1nsc2ccc(-n3c(=O)cc(C(F)(F)F)n(C)c3=O)cc12 , reported herbicidal effect rating: 6.5

Memo: O=C1C2=C(CCCC2)C(=O)N1c1ccc2sncc2c1 , reported herbicidal effect rating: 0.0

---

Consider the following compounds; for each one, report its herbicidal effect rating.
Tested on: ORYSAT Rice, Tebonnet
ASSAY_NAME: Rice tolerance, flooded paddy (Table IV)
Format: in vivo, Oryza sativa
Parameters: scale not given here
CONDITION_NOTES: 0.2500 kg/ha, crop tolerance
Just the number, please, no unit after it.

COc1ccc(I)cc1-c1nsc2ccc(-n3c(=O)cc(C(F)(F)F)n(C)c3=O)cc12 on ORYSAT Rice, Tebonnet gives herbicidal effect rating = 2.0

COC(=O)C(C)Oc1cc(C)c(C)cc1-c1nsc2ccc(-n3c(=O)cc(C(F)(F)F)n(C)c3=O)cc12 (stereo not shown) on ORYSAT Rice, Tebonnet gives herbicidal effect rating = 4.0

COC(=O)COc1cc(C)c(C)cc1-c1nsc2ccc(-n3c(=O)cc(C(F)(F)F)n(C)c3=O)cc12 on ORYSAT Rice, Tebonnet gives herbicidal effect rating = 7.0

COc1ccc(OC)c(-c2nsc3ccc(-n4c(=O)cc(C(F)(F)F)n(C)c4=O)cc23)c1 on ORYSAT Rice, Tebonnet gives herbicidal effect rating = 6.0

Cn1c(C(F)(F)F)cc(=O)n(-c2ccc3snc(C(=O)C(C)(C)C)c3c2)c1=O on ORYSAT Rice, Tebonnet gives herbicidal effect rating = 7.0

COC(=O)C(C)Oc1ccc(C)cc1-c1nsc2ccc(-n3c(=O)cc(C(F)(F)F)n(C)c3=O)cc12 (stereo not shown) on ORYSAT Rice, Tebonnet gives herbicidal effect rating = 3.0

CCc1ccc(-c2nsc3ccc(-n4c(=O)cc(C(F)(F)F)n(C)c4=O)cc23)cc1 on ORYSAT Rice, Tebonnet gives herbicidal effect rating = 6.0

---

System: ABUTH
ASSAY_NAME: Postemergence herbicidal evaluation
Format: in vivo
CONDITION_NOTES: 0.0313-0.0320 kg/ha
MEASURED_QUANTITY: herbicidal effect rating

Memo: Cc1nsc2ccc(-n3c(=O)cc(C(F)(F)F)n(C)c3=O)cc12 , reported herbicidal effect rating: 9.0

Memo: O=C1C2=C(CCCC2)C(=O)N1c1ccc2sncc2c1 , reported herbicidal effect rating: 9.0

Memo: Cc1nsc2ccc(N3C(=O)C4=C(CCCC4)C3=O)cc12 , reported herbicidal effect rating: 8.0

Memo: Cn1c(C(F)(F)F)cc(=O)n(-c2ccc3snc(-c4ccccc4)c3c2)c1=O , reported herbicidal effect rating: 9.0
